Target: UniProt:P29990
Sequence (P29990 2492-3391 limits assumed): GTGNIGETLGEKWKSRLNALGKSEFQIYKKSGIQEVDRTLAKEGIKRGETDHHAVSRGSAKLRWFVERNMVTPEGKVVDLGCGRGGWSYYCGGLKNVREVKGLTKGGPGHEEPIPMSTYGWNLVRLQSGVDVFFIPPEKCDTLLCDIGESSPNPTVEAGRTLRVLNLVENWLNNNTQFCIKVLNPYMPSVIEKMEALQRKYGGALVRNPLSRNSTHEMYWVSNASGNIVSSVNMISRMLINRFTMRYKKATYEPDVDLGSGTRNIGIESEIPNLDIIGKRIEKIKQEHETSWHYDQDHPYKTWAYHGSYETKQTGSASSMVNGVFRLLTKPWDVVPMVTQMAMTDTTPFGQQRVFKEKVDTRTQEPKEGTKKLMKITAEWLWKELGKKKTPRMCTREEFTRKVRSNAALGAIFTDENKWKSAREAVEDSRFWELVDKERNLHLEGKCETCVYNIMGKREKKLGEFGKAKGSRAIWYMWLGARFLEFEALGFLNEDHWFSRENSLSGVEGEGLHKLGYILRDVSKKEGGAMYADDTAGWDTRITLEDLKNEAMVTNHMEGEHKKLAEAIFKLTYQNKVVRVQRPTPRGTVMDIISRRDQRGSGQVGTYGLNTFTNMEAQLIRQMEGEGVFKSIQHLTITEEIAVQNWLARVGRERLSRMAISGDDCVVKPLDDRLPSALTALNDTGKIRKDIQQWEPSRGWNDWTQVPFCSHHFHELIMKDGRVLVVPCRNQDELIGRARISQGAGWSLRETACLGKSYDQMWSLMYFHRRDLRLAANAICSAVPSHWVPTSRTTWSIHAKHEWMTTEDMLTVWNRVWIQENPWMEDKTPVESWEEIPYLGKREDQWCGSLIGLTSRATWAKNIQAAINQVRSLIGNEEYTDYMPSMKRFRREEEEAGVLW
Assay: flavivirus cap methylation enzyme inhibition – biochemical, confirmation dose response, primary screen (AID 588689)
Format: functional
Active and inactive are the calls of the source. No rule for the calls is given here.
MEASURE_NAME: IC50

C[n+]1c(-c2ccccc2)cc2c(=Cc3ccc([N+](=O)[O-])cc3)c3ccccc3n21 :: 14.2 µM (active)

Identify measured IC50 associated with `O=C(NN=Cc1cc(Br)c(O)c(Br)c1)c1ccccc1NS(=O)(=O)c1cccs1`
27.7 µM (active)

Consider the compound `O=C(O)c1ccc2c(c1Nc1ccccc1)C(=O)c1ccccc1C2=O` and give its recorded IC50.
> 100 µM (active)

Output measured IC50 for this item: `CCN1C(=O)/C(=C\c2ccc(-c3ccc([N+](=O)[O-])cc3OC)o2)S/C1=N\c1cccc(C(=O)O)c1`
64.5 µM (active)

Query IC50 for `CCC(=O)OCCNc1cc(Sc2nc3ccccc3s2)c2nonc2c1[N+](=O)[O-]`
29.6 µM (active)

Write down IC50 measured for item `O=C(O)COc1ccccc1/C=N/NC(=O)c1cc(-c2ccc(Cl)cc2)nc2ccccc12`
39.5 µM (active)

Supply IC50 value. Item: `CCC1=NN2C(=N)/C(=C\c3ccc(OCc4cc(=O)n5nc(CC)sc5n4)c(OC)c3)C(=O)N=C2S1`
61.9 µM (active)

Specify reported IC50 for the compound shown: `O=C(O)c1cc(N2N=C(C(F)(F)F)/C(=C/C=C/c3ccco3)C2=O)ccc1Cl`
24.2 µM (active)

# return recorded IC50 for entry COc1cc(NCCCC(C)N)c2ncccc2c1 (stereo unspecified)
> 100 µM (active)

Consider the compound `CNCc1ccccc1Sc1ccc(O)c(O)c1` . State its measured IC50.
21.2 µM (active)

Note down IC50 recorded for Cc1ccc(C(C2=C(O)CC(C)(C)CC2=O)C2C(=O)CC(C)(C)CC2=O)o1 (stereo unspecified)
60 µM (active)

----------
Molecular target: Cytochrome P450 3A4 (Homo sapiens, UniProt P08684);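 also: confirmatory qHTS run detecting inhibitors and substrates of CYP3A4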
Sequence (P08684 whole entry): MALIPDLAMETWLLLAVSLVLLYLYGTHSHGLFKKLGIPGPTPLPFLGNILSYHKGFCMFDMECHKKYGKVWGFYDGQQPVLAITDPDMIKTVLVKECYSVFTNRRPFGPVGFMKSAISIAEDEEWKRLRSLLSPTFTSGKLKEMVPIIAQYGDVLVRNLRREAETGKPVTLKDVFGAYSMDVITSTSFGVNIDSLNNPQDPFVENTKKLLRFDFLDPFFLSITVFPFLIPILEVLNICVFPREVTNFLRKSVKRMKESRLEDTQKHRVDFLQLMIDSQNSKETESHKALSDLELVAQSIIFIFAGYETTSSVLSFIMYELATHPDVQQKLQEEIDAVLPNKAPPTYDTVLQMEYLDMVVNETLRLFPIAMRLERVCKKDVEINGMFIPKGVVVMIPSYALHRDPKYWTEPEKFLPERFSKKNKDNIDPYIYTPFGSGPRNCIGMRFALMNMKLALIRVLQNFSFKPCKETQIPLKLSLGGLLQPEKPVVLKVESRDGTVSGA
Settings: Potency
MEASURE_NAME: AC50

Below: 3 compounds and their reported AC50.
COc1ccc(C)cc1N :: 31.6 µM (inconclusive)
FC(F)(F)c1ccc(CN2C[C@@H]3C(c4ccc(C(F)(F)F)cc4)C4(c5ccccc5)CC3(C4)[C@H]2c2ccccc2)cc1 (some centres undefined) :: 0.316 µM (inconclusive)
COc1ccc(-c2nc3c(c4c2CC(C)OC4)CN(CCC(C)C)CC3)cc1 (centres undefined) :: 3.16 µM (inconclusive)

Give reported AC50 value for C=C(C)C(O)/C=C/CCCCCCC (centres undefined)
3.98 µM (inconclusive)

----------
Biological target: Leucine aminopeptidase (Plasmodium falciparum 3D7, UniProt Q8IL11)
Sequence (Q8IL11 whole entry): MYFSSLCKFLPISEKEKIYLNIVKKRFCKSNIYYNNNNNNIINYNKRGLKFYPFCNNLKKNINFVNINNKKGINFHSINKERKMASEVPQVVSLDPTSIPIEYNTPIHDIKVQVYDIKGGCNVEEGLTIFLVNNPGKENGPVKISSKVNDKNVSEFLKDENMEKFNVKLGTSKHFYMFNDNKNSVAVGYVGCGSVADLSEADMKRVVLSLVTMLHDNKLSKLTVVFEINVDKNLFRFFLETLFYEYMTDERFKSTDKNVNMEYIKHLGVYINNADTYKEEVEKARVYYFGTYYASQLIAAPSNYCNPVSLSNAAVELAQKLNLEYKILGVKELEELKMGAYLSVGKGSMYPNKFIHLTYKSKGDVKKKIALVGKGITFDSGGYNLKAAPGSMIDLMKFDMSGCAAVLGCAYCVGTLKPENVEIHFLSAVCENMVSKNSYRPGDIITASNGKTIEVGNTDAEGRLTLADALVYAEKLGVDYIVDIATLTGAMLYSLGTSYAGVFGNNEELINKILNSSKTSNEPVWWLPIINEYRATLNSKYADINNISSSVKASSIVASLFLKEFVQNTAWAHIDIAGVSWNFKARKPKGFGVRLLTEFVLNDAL
Assay: P. falciparum M17LAP inhibitors, primary screen, biochemical, fluorogenic H-Leu-NHMec substrate, 1536-well (AID 1619)
Assay type: functional
Active and inactive are the calls of the source. No rule for the calls is given here.
MEASURE_NAME: IC50

Please look at `C=CCn1c(SCC(=O)c2ccc(O)c(O)c2)nnc1-c1ccccc1OC` and tell me its recorded IC50 on Leucine aminopeptidase (Plasmodium falciparum 3D7, UniProt Q8IL11).
22.8 µM (active)

Write down measured IC50 (Leucine aminopeptidase (Plasmodium falciparum 3D7, UniProt Q8IL11)) for this molecule. `O=C(CN1C(=O)c2ccccc2S1(=O)=O)NCCSc1ccccc1`
5.54 µM (active)

Please respond with reported IC50 (system Leucine aminopeptidase (Plasmodium falciparum 3D7, UniProt Q8IL11)) for `O=C(O)CCC(=O)Nc1sc2c(c1C(=O)Nc1ccccc1)CCCCC2` .
47 µM (active)

Please look at `COc1ccc(NC(=O)CSC2=NC(=O)CC(C)=N2)cc1` and tell me its recorded IC50 on Leucine aminopeptidase (Plasmodium falciparum 3D7, UniProt Q8IL11).
3.09 µM (active)

Measured values drawn from ChEMBL document CHEMBL1201862 for this set.
